Origin of measurements: ChEMBL document CHEMBL3286129

The entries below are paired with their reported growth at 10 µM.
- assay-summary: Cytotoxicity against human renal cancer cells assessed as cell growth at 10 uM relative to control
- Format: functional
- measurement-setup: Cancer cell lines, read-out: Activity
// note: answer is a bare numeric in %

Here are 8 molecules together with their reported answers.
[[record]]
test_smiles = "CC(C)C[C@H](NC(=O)CCn1ccc2ncccc2c1=O)B(O)O"
reported_property = "growth at 10 µM"
scale_unit = "%"
value_measured = 76.1

[[record]]
test_smiles = "CC(C)CCNC(=O)Cn1ccc2ccccc2c1=O"
reported_property = "growth at 10 µM"
scale_unit = "%"
value_measured = 97.4

[[record]]
test_smiles = "COc1cc2ccn(CC(=O)N[C@@H](CC(C)C)B(O)O)c(=O)c2cc1OC"
reported_property = "growth at 10 µM"
scale_unit = "%"
value_measured = 98.5

[[record]]
test_smiles = "CC(C)C[C@H](NC(=O)CCn1ccc2ccc(Br)cc2c1=O)B(O)O"
reported_property = "growth at 10 µM"
scale_unit = "%"
value_measured = -4

[[record]]
test_smiles = "COc1cc2ccn(CCC(=O)N[C@@H](CC(C)C)B(O)O)c(=O)c2cc1OC"
reported_property = "growth at 10 µM"
scale_unit = "%"
value_measured = 89

[[record]]
test_smiles = "CC(C)C[C@H](NC(=O)Cn1ccc2ccccc2c1=O)B(O)O"
reported_property = "growth at 10 µM"
scale_unit = "%"
value_measured = 39.8

[[record]]
test_smiles = "COc1cc2ccn(CCC(=O)NCCC(C)C)c(=O)c2cc1OC"
reported_property = "growth at 10 µM"
scale_unit = "%"
value_measured = 95.3

[[record]]
test_smiles = "CC(C)CCNC(=O)CCn1ccc2ccc(Br)cc2c1=O"
reported_property = "growth at 10 µM"
scale_unit = "%"
value_measured = 86.1


Prompt line: Record request: growth at 10 µM value, item CC(C)C[C@H](NC(=O)CCn1ccc2ccccc2c1=O)B(O)O
Response line: 32.3

Prompt line: Record request: growth at 10 µM value, item CC(C)C[C@H](NC(=O)Cn1ccc2ccc(Br)cc2c1=O)B(O)O
Response line: -8.89

====

- System: IGROV-1
- assay-summary: Growth inhibition of human IGROV1 cells
- Type: functional
reported-property: TGI

[[record]]
test_smiles = "CC(C)C[C@H](NC(=O)Cn1ccc2ccc(Br)cc2c1=O)B(O)O"
reported_property = "TGI"
value_measured = "46.9 µM"

[[record]]
test_smiles = "CC(C)C[C@H](NC(=O)CCn1ccc2ncccc2c1=O)B(O)O"
reported_property = "TGI"
value_measured = "> 100 µM"

[[record]]
test_smiles = "CC(C)C[C@H](NC(=O)CCn1ccc2ccccc2c1=O)B(O)O"
reported_property = "TGI"
value_measured = "> 100 µM"


Moving on to another compound below.
Prompt line: Record request: TGI value, item CC(C)C[C@H](NC(=O)CCn1ccc2ccc(Br)cc2c1=O)B(O)O
Response line: > 100 µM

====

- assay-summary: Cytotoxicity against human breast cancer cells assessed as cell growth at 10 uM relative to control
- Type: functional
- measurement-setup: Cancer cell lines, read-out: Activity
The entries below are paired with their reported growth at 10 µM.
// note: answer is a bare numeric in %

Here are 9 molecules together with their reported answers.
[[record]]
test_smiles = "CC(C)C[C@H](NC(=O)CCn1ccc2ccccc2c1=O)B(O)O"
value_measured = 38.1

[[record]]
test_smiles = "CC(C)CCNC(=O)Cn1ccc2ccccc2c1=O"
value_measured = 103

[[record]]
test_smiles = "COc1cc2ccn(CCC(=O)N[C@@H](CC(C)C)B(O)O)c(=O)c2cc1OC"
value_measured = 56.9

[[record]]
test_smiles = "CC(C)CCNC(=O)CCn1ccc2ccc(Br)cc2c1=O"
value_measured = 94.5

[[record]]
test_smiles = "CC(C)C[C@H](NC(=O)CCn1ccc2ccc(Br)cc2c1=O)B(O)O"
value_measured = 2.31

[[record]]
test_smiles = "CC(C)C[C@H](NC(=O)Cn1ccc2ccc(Br)cc2c1=O)B(O)O"
value_measured = 2.23

[[record]]
test_smiles = "CC(C)C[C@H](NC(=O)CCn1ccc2ncccc2c1=O)B(O)O"
value_measured = 68

[[record]]
test_smiles = "CC(C)C[C@H](NC(=O)Cn1ccc2ccccc2c1=O)B(O)O"
value_measured = 51.3

[[record]]
test_smiles = "COc1cc2ccn(CC(=O)N[C@@H](CC(C)C)B(O)O)c(=O)c2cc1OC"
value_measured = 99


Moving on to another molecule below.
Prompt line: Record request: growth at 10 µM value, item COc1cc2ccn(CCC(=O)NCCC(C)C)c(=O)c2cc1OC
Response line: 103
